Target: T1, PUF4 RNA-binding domain (Saccharomyces cerevisiae, UniProt P25339 537-888)
T1 sequence: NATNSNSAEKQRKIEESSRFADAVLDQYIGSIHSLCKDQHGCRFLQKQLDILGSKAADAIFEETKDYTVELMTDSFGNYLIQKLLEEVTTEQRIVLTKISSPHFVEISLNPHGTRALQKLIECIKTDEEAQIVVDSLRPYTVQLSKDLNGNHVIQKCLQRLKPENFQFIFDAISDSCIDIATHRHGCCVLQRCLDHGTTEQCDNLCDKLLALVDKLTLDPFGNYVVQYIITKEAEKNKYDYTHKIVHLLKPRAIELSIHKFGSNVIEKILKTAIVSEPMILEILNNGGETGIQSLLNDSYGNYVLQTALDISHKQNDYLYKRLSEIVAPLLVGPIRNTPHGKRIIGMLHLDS
Experiment: Mg; RNA-MaP; 20 mM Na-HEPES pH 7.4, 30 mM KOAc, 0.75 mM MgCl2, 0.1% Tween-20, 5% glycerol, 0.1 mg/mL BSA, 2 mM DTT; 25 C; 0.0125-409.6 nM protein
Conditions: tags: N-His6-TEV cleaved; C-SNAP kept, Cy3B-labelled; label: tethered on chip by stalled RNA polymerase
QUANTITY_KIND: Kd (nM)
Respond numerically; units are nM and should not be typed.

Sure, the documented Kd for Ib_S4_P4E.1_K4.1_C4.1_H4.1_[T1G]_A4.1_F4.1_[T8A]_T4.1 (ssRNA) RNA: UUUGACAACUGAUCGUUCUUUCUGGUAUAUAAUUCUUUCUCGAUCAGUUGUCUUU is 1410

Lab note: UCUCUUUGUAUUACCCUUAUCUCUU (ssRNA) [Ie_S1_P5E.1_K5.1_C5.1_H5.1_A5.1_[+7CCC]_F5.1_T5.1] gave Kd of 209

UCUCUUUUUAUAUAUUAGGUCUCUU (ssRNA) [Id_ii_S1_P4E.3_K4.2_C4.2_[C-2T]_H4.2_A4.1_F4.1_T4.2_[T11G]] has a reported Kd of 22.6

For reference, reported Kd for Ic_S2_P3E.1_K3.1_C3.1_H3.1_A3.1_[T5C]_[A6T]_F3.1_[T7G]_[A8C]_T3.1 (ssRNA) RNA: UUUGAUUAAUAUGAUAUCGUUCUUUCUUGUACUGCUUCUUUCUCGAUAUCAUAUUAAUCUUU stands at 381

Cited source: paper PMC9352680
